Each entry below carries its reported koff.
# test-system: feline FcRn (FCN-F82W3, Acrobiosystems) (feline)
# method-description: SPR Carterra, IgG coupled, pH 6.0
value-type: koff (s⁻¹)

1) anti-NGF feline IgG1a, Fc variant S428L, D312T (antibody, part only; not given: anti-NGF variable domains, not shown: another chain or arm of the molecule; small tags and cut ends) Fc: PPEMLGGPSIFIFPPKPKDTLSISRTPEVTCLVVDLGPDDSDVQITWFVDNTQVYTAKTSPREEQFNSTYRVVSVLPILHQTWLKGKEFKCKVNSKSLPSPIERTISKAKGQPHEPQVYVLPPAQEELSRNKVSVTCLIKSFHPPDIAVEWEITGQPEPENNYRTTPPQLDSDGTYFVYSKLSVDRSHWQRGNTYTCSVLHEALHSHHTQKSLTQSPGK :: 0.0113
2) anti-NGF feline IgG1a, Fc variant S434Y, L262E (antibody, part only; not given: Anti-NGF variable domains, not shown: another chain or arm of the molecule; small tags and cut ends) Fc: PPEMLGGPSIFIFPPKPKDTLSISRTPEVTCEVVDLGPDDSDVQITWFVDNTQVYTAKTSPREEQFNSTYRVVSVLPILHQDWLKGKEFKCKVNSKSLPSPIERTISKAKGQPHEPQVYVLPPAQEELSRNKVSVTCLIKSFHPPDIAVEWEITGQPEPENNYRTTPPQLDSDGTYFVYSKLSVDRSHWQRGNTYTCSVSHEALHYHHTQKSLTQSPGK :: 0.00498
3) anti-NGF feline IgG1a, Fc variant S254K (antibody, part only; not given: Anti-NGF variable domains, not shown: another chain or arm of the molecule; small tags and cut ends) Fc: PPEMLGGPSIFIFPPKPKDTLSIKRTPEVTCLVVDLGPDDSDVQITWFVDNTQVYTAKTSPREEQFNSTYRVVSVLPILHQDWLKGKEFKCKVNSKSLPSPIERTISKAKGQPHEPQVYVLPPAQEELSRNKVSVTCLIKSFHPPDIAVEWEITGQPEPENNYRTTPPQLDSDGTYFVYSKLSVDRSHWQRGNTYTCSVSHEALHSHHTQKSLTQSPGK :: 0.0557
4) anti-NGF feline IgG1a, Fc variant T286E, S428R (antibody, part only; not given: anti-NGF variable domains, not shown: another chain or arm of the molecule; small tags and cut ends) Fc: PPEMLGGPSIFIFPPKPKDTLSISRTPEVTCLVVDLGPDDSDVQITWFVDNTQVYEAKTSPREEQFNSTYRVVSVLPILHQDWLKGKEFKCKVNSKSLPSPIERTISKAKGQPHEPQVYVLPPAQEELSRNKVSVTCLIKSFHPPDIAVEWEITGQPEPENNYRTTPPQLDSDGTYFVYSKLSVDRSHWQRGNTYTCSVRHEALHSHHTQKSLTQSPGK :: 0.00648
5) anti-NGF feline IgG1a with wild-type Fc (antibody, part only; not given: anti-NGF variable domains, not shown: another chain or arm of the molecule; small tags and cut ends) Fc: PPEMLGGPSIFIFPPKPKDTLSISRTPEVTCLVVDLGPDDSDVQITWFVDNTQVYTAKTSPREEQFNSTYRVVSVLPILHQDWLKGKEFKCKVNSKSLPSPIERTISKAKGQPHEPQVYVLPPAQEELSRNKVSVTCLIKSFHPPDIAVEWEITGQPEPENNYRTTPPQLDSDGTYFVYSKLSVDRSHWQRGNTYTCSVSHEALHSHHTQKSLTQSPGK :: 0.11
